# assayed.target: native human MET on living human cells (human, UniProt P08581 25-1390)
# Sequence (P08581 25-1390): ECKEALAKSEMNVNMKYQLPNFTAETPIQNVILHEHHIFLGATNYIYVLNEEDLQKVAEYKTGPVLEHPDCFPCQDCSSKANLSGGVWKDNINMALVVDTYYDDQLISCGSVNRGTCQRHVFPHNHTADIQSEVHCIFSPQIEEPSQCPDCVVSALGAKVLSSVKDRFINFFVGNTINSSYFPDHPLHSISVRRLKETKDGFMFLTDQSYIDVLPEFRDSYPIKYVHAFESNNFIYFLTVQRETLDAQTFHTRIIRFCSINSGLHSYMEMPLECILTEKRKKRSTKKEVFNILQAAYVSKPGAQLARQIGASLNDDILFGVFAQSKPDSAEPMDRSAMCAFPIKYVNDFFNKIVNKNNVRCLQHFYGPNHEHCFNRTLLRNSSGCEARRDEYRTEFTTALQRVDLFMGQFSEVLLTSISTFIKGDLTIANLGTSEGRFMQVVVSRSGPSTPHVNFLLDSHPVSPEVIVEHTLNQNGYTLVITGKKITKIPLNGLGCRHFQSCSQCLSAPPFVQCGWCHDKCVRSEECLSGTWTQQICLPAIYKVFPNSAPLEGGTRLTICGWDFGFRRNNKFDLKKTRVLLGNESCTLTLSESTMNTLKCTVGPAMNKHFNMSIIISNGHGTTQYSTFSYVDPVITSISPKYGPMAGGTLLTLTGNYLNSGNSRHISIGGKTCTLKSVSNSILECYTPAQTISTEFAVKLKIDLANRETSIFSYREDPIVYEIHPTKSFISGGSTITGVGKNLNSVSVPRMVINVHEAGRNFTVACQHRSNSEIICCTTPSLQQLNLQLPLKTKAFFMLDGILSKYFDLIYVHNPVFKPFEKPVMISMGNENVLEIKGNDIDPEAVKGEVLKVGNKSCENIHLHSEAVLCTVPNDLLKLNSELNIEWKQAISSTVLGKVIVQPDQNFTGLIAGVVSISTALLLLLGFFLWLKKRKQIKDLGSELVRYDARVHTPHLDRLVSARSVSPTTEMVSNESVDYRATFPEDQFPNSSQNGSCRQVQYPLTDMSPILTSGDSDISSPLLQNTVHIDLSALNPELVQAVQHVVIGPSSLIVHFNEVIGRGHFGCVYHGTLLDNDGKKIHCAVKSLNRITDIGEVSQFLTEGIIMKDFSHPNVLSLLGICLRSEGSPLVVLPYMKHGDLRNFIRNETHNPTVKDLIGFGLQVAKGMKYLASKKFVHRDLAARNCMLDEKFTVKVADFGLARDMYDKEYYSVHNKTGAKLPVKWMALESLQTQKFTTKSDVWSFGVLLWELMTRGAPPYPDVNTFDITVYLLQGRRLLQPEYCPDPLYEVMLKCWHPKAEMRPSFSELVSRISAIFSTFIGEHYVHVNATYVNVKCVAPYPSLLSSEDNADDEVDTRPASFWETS
# protocol.summary: cell-based or functional assay
Listed binders paired with reported cell scattering score, HPAF-II, 1.000 nM
Could you give me the number in score 0-4? Just the number is fine.

Sample records with cell scattering score, HPAF-II, 1.000 nM:
Fill in reported cell scattering score, HPAF-II, 1.000 nM for this entry: chimeric llama-human IgG1 mAb 76G7 (antibody, V domains shown) VH: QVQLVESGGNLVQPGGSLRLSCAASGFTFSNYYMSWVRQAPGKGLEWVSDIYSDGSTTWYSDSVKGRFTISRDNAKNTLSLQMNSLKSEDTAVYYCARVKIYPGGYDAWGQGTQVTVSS VL: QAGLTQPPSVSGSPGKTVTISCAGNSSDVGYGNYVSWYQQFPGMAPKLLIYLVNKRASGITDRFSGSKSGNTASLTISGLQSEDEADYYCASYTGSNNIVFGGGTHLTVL 1

Fill in reported cell scattering score, HPAF-II, 1.000 nM for this entry: chimeric llama-human IgG1 mAb 71D4 (antibody, V domains shown) VH: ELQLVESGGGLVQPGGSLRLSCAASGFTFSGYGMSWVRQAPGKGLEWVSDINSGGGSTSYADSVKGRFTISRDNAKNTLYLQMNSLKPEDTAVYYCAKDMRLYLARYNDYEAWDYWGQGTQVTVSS VL: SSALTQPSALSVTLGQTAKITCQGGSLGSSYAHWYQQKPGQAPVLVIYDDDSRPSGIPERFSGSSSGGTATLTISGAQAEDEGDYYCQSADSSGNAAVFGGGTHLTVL 1

Now consider the entry below.
Fill in reported cell scattering score, HPAF-II, 1.000 nM for this entry: chimeric llama-human IgG1 mAb 71D6 (antibody, V domains shown) VH: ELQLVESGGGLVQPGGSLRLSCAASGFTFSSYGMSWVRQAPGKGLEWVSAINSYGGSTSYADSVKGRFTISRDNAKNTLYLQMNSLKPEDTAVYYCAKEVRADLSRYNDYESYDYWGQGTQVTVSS VL: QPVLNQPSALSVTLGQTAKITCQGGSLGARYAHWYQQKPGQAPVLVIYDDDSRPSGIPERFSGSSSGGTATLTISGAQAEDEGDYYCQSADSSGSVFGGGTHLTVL 4
